// each record: one item and its IC50 for PAK3 (Homo sapiens)

Q. For "CCn1c(=O)c(-c2ccc(-c3ccc(C)s3)cc2Cl)cc2cnc(Nc3ccc(N4CCN(C)CC4)cc3)nc21" , what is its reported IC50?
A. 50 to 500 nM

Q. Which IC50 value belongs to "CCn1c(=O)c(-c2ccc(-c3ccc(OC)nc3)cc2)cc2cnc(Nc3ccc(N4CCN(C)CC4)cc3)nc21" ?
A. 50 to 500 nM

Q. IC50 lookup needed for CCn1c(=O)c(-c2ccc(-c3cnc(C)s3)cc2Cl)cc2cnc(Nc3ccc(C4CCN5CCCC5C4)cc3)nc21 (stereo not drawn) , thanks.
A. < 50 nM

Q. Entry under review: "Cc1cnc(-c2ccc(Cl)c(-c3cc4cnc(Nc5ccc(C6CCN(C)CC6)cc5)nc4n(C)c3=O)c2)s1" . Reported IC50?
A. 50 to 500 nM

Q. Item "CCn1c(=O)c(-c2ccc(-c3ccsc3)cc2)cc2cnc(Nc3ccc(N4CCN(C)CC4)cc3)nc21" has what recorded IC50?
A. 50 to 500 nM

Q. Please report the recorded IC50 for "CCn1c(=O)c(-c2ccc(-c3cncnc3)cc2Cl)cc2cnc(Nc3ccc(N4CCN(C(C)C)CC4)c(F)c3)nc21" .
A. < 50 nM

---

Here's what we have: IC50 numbers for PAK1 (Homo sapiens).

Some molecules with recorded IC50:
CCn1c(=O)c(-c2ccc(-c3noc(C)n3)cc2Cl)cc2cnc(Nc3ccc(C4=CCNCC4)cc3)nc21 :: < 50 nM
CCN1CCC(c2ccc(Nc3ncc4cc(-c5ccc(-c6cccnc6C)cc5Cl)c(=O)n(CC)c4n3)cc2F)CC1 :: < 50 nM
CCn1c(=O)c(-c2ccc(-c3ccoc3)cc2)cc2cnc(Nc3ccc(N4CCN(C)CC4)cc3)nc21 :: 50 to 500 nM

Q. Could you share what IC50 was measured for "CCn1c(=O)c(-c2ccc(-c3ccco3)cc2Cl)cc2cnc(Nc3ccc(N4CCN(C)CC4)cc3)nc21" , tested on PAK1 (Homo sapiens)?
A. < 50 nM

Q. Identify the measured IC50 of "Cc1ncccc1-c1cc(Cl)c(-c2cc3cnc(Nc4ccc(C5CCN(C)CC5)cc4)nc3n(C)c2=O)cc1F" for PAK1 (Homo sapiens).
A. 50 to 500 nM

Q. State its IC50 on PAK1 (Homo sapiens): "CCn1c(=O)c(-c2ccc(-c3ccncc3)cc2Cl)cc2cnc(Nc3ccc(N4CCN(C)CC4)cc3)nc21"
A. < 50 nM

---

Observed pIC50, system PAK4 (Homo sapiens).
pIC50: −log10 of the molar value.

CCn1c(=O)c(-c2ccc(-c3ccnc(C)c3)cc2Cl)cc2cnc(Nc3ccc(C4CCNCC4)cc3)nc21 :: 5.30 to 6.30
CCn1c(=O)c(-c2ccc(-c3cccnc3)cc2Cl)cc2cnc(Nc3ccc(N4CCN(C(C)C)CC4)cc3)nc21 [drawing 655] :: 6.30 to 7.30

Q. Which pIC50 is reported with PAK4 (Homo sapiens) for this entry: "CCn1c(=O)c(-c2ccc(-c3ccco3)cc2Cl)cc2cnc(Nc3ccc(N4CCN(C)CC4)cc3)nc21" ?
A. ≤ 5.30

Q. Find pIC50 (PAK4 (Homo sapiens)) for the entry "CN(C)CCc1ccc(Nc2ncc3cc(-c4ccc(-c5cccnc5F)cc4Cl)c(=O)n(C)c3n2)cc1"
A. 5.30 to 6.30

Q. Request - read-out pIC50 | tested on PAK4 (Homo sapiens) | molecule "CCn1c(=O)c(-c2ccc(-c3ccc(C)s3)cc2Cl)cc2cnc(Nc3ccc(N4CCN(C)CC4)cc3)nc21"
A. ≤ 5.30

Q. What value of pIC50 on PAK4 (Homo sapiens) does CCn1c(=O)c(-c2ccc(-c3noc(C)n3)cc2Cl)cc2cnc(Nc3ccc(C4CCNC4)c(F)c3)nc21 (centres unmarked) have?
A. 5.30 to 6.30

Q. # query: pIC50 | item "CCn1c(=O)c(-c2ccc(-c3cncnc3)cc2)cc2cnc(Nc3ccc(N4CCN(C)CC4)cc3)nc21" | system: PAK4 (Homo sapiens)
A. ≤ 5.30

Q. Request - read-out pIC50 | tested on PAK4 (Homo sapiens) | molecule "CCn1c(=O)c(-c2ccc(-c3ccnc(C)c3)cc2Cl)cc2cnc(Nc3ccc(N4CCN(C)CC4)cc3)nc21"
A. ≤ 5.30

---

# assay-system: PAK3 (Homo sapiens)
# Sequence (O75914 whole entry): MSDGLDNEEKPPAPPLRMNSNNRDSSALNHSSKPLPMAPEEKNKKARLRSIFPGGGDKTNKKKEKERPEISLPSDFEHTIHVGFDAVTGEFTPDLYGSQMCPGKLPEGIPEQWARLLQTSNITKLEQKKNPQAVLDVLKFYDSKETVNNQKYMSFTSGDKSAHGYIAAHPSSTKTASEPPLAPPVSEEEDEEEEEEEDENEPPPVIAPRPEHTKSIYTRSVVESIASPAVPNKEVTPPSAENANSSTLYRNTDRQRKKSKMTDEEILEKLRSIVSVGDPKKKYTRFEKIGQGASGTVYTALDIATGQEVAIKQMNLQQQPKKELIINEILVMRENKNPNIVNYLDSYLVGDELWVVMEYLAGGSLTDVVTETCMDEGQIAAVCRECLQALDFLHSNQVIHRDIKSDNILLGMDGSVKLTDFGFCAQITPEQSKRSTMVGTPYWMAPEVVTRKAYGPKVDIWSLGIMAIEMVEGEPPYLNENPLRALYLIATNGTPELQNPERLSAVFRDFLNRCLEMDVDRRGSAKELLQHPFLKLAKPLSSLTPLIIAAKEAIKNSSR
# assay-method-text: In vitro PAK inhibition assay (SelectScreen, Ser/Thr 20 peptide)
# Type: biochemical
pIC50: −log10 of the molar value.
measurement-name: pIC50

CCn1c(=O)c(-c2ccc(-c3ccncc3)s2)cc2cnc(Nc3ccc(N4CCN(C)CC4)cc3)nc21 :: < 5.30
CCn1c(=O)c(-c2ccc(-c3cn[nH]c3)cc2)cc2cnc(Nc3ccc(N4CCN(C)CC4)cc3)nc21 :: < 5.30

Q. Field request: pIC50 | item: "CCN1CCN(c2ccc(Nc3ncc4cc(-c5ccc(-c6cncs6)cc5Cl)c(=O)n(CC)c4n3)cc2F)CC1"
A. 6.30 to 7.30

Q. Bench note: what pIC50 did "CCn1c(=O)c(-c2ccc(-c3ccc(F)nc3C)cc2Cl)cc2cnc(Nc3ccc(C4CCN(C)CC4)c(F)c3)nc21" show?
A. 6.30 to 7.30

Q. I am curious: what pIC50 value has been reported for "CCn1c(=O)c(-c2ccc(-c3cnc(C)s3)cc2Cl)cc2cnc(Nc3ccc(CCN(C)C)cc3)nc21" ?
A. > 7.30

Q. So what's the measured pIC50 for this one? "CCn1c(=O)c(-c2ccc(-c3noc(C)n3)cc2Cl)cc2cnc(Nc3ccc(C4=CCN(C)CC4)cc3)nc21"
A. > 7.30

---

# assay-system: PAK1 (Homo sapiens, UniProt Q13153)
# Sequence (Q13153 whole entry): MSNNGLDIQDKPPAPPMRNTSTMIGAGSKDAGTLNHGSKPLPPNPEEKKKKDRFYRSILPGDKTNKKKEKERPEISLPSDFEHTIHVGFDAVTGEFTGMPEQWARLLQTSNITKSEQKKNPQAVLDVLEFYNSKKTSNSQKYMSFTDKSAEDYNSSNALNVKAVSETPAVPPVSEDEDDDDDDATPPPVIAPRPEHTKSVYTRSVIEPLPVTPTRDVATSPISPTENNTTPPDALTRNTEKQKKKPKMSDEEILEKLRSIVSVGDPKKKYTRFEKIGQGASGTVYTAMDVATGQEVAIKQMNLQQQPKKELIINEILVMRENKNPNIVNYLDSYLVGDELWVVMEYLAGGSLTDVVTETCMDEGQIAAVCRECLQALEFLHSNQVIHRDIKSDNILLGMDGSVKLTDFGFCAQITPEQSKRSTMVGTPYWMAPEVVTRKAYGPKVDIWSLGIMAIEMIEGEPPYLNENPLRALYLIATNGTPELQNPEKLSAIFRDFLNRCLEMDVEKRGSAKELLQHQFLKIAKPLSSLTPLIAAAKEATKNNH
pIC50: −log10 of the molar value.
pIC50 values for the molecules below.

Here's what some known entries look like.
CCN1CCN(c2ccc(Nc3ncc4cc(-c5ccc(-c6scnc6C)cc5Cl)c(=O)n(CC)c4n3)cc2)CC1 :: > 7.30
Cc1ncc(-c2ccc(-c3cc4cnc(Nc5ccc(CCN(C)C)cc5)nc4n(C)c3=O)c(Cl)c2)s1 :: > 7.30
CCn1c(=O)c(-c2ccc(-c3cccnc3C)cn2)cc2cnc(Nc3ccc(C4CCN(C)CC4)cc3)nc21 :: < 5.30
CCN1CCN(c2ccc(Nc3ncc4cc(-c5ccc(-c6cncnc6)cc5Cl)c(=O)n(CC)c4n3)cc2F)CC1 :: > 7.30
CCN1CCC(c2ccc(Nc3ncc4cc(-c5ccc(-c6ccc(C)nc6F)cc5Cl)c(=O)n(CC)c4n3)cc2F)CC1 :: 6.30 to 7.30
CCn1c(=O)c(-c2ccc(-c3cccnc3F)cc2Cl)cc2cnc(Nc3ccc(C4=CCNCC4)cc3)nc21 :: > 7.30
CCn1c(=O)c(-c2ccc(-c3cccnc3C)cc2Cl)cc2cnc(Nc3ccc(C4CCN5CCCC5C4)cc3)nc21 (stereo not drawn) :: > 7.30
CCN1CCC(c2ccc(Nc3ncc4cc(-c5ccc(-c6noc(C)n6)cc5Cl)c(=O)n(C)c4n3)cc2)CC1 :: > 7.30

Q. Item: "CCn1c(=O)c(-c2ccc(-c3cnc(C)s3)cc2Cl)cc2cnc(Nc3ccc(CCN4CCCC4)cc3)nc21" Test system: PAK1 (Homo sapiens, UniProt Q13153) Read-out: pIC50 Value: ?
A. > 7.30

Q. // lookup pIC50 | system=PAK1 (Homo sapiens, UniProt Q13153) | key= "CCn1c(=O)c(-c2ccc(-c3ccccn3)s2)cc2cnc(Nc3ccc(N4CCN(C)CC4)cc3)nc21"
A. < 5.30

Q. Enter reported pIC50 observed with PAK1 (Homo sapiens, UniProt Q13153) for "CCn1c(=O)c(-c2ccc(C3CC3)s2)cc2cnc(Nc3ccc(N4CCN(C)CC4)cc3)nc21"
A. < 5.30

Q. I'm curious: which pIC50 was measured for "CCn1c(=O)c(-c2ccc(-c3cccnc3)cc2Cl)cc2cnc(Nc3ccc(N4CCN(C(C)C)CC4)c(F)c3)nc21" tested on PAK1 (Homo sapiens, UniProt Q13153)?
A. > 7.30

Q. # returns recorded pIC50 (system: PAK1 (Homo sapiens, UniProt Q13153)) for "CCn1c(=O)c(-c2ccc(-c3cccnc3C)cc2Cl)cc2cnc(Nc3ccc(C4=CCNCC4)cc3)nc21"
A. > 7.30

Q. Give PAK1 (Homo sapiens, UniProt Q13153) pIC50 for "CNC(=O)c1cc(-c2ccc(-c3cc4cnc(Nc5ccc(CCN(C)C)cc5)nc4n(C)c3=O)c(Cl)c2)ccn1"
A. 6.30 to 7.30

Q. pIC50 of "CCn1c(=O)c(-c2ccc(-c3noc(C)n3)cn2)cc2cnc(Nc3ccc(C4CCN(C)CC4)cc3)nc21" on PAK1 (Homo sapiens, UniProt Q13153)?
A. 5.30 to 6.30

Q. Write down the reported pIC50 of CCn1c(=O)c(-c2ccc(-c3cccnc3)cc2Cl)cc2cnc(Nc3ccc(N4CCN(C(C)C)CC4)cc3)nc21 [drawing 650] , test system: PAK1 (Homo sapiens, UniProt Q13153).
A. > 7.30

Each recorded value in this set is attributed to patent US20140163026A1.
